Recorded inhibition at 20 µM by entry
System: Ehrlich-Ascites-Tumorzellen
assayOverview: Inhibition of proliferation of Ehrlich ascites tumour cells in vitro
Format: cell-based
assayConditions: Konzentration 20 µM, read-out: Hemmung der Proliferation (%) von Ehrlich-Ascites-Tumorzellen in vitro, % Hemmung

compound	inhibition at 20 µM / %
CCCCCCCCCCCCCCCCOCC(F)COP(=O)(O)OC[C@H](N)C(=O)O (some centres unmarked)	82
CCCCCCCCCCCCCCCCOC(COCC(F)(F)F)COP(=O)(O)OC[C@H](N)C(=O)O (some centres unmarked)	74
CCCCCCCCCCCCCCCCCCOCC(COP(=O)([O-])OCC[N+](C)(C)C)OC (centres unmarked) [V, reference compound]	62
CCCCCCCCCCCCCCCCOCC(CCl)OP(=O)(O)OC[C@H](N)C(=O)O (some centres unmarked)	81
CCCCCCCCCCCCCCCCOCC(Cl)COP(=O)(O)OC[C@H](N)C(=O)O (some centres unmarked)	80
